- experimental system: T1, Human OX40 (Sino Biological Inc) (human, UniProt P43489 29-216, limits assumed)
- T1 construct: Bought soluble protein used as SPR analyte; also called huOX40
- T1 sequence: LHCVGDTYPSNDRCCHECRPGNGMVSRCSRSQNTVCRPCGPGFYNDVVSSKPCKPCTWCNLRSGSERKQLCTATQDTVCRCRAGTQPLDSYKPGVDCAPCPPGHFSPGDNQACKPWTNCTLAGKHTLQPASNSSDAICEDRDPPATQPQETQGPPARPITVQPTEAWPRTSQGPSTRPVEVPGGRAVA
- experiment description: SPR (Biacore), antibody captured via anti-human Fc, huOX40 analyte
readout name: koff (s⁻¹)
Lab book: enter the figure in s⁻¹, no units written.

## Task Look up koff: 3C8.gr.DQ (antibody, V domains shown, also called 3C8.gr.5.DQ) VH: EVQLVQSGAEVKKPGASVKVSCKASGYAFTNYLIEWVRQAPGQGLEWIGVINPGSGDQYYSEKFKGRVTLTADTSTSTAYLELSSLRSEDTAVYYCARDRLDYWGQGTLVTVSS VL: DIQMTQSPSSLSASVGDRVTITCHASQDISSYIVWYQQKPGKSFKGLIYHGTNLEDGVPSRFSGSGSGTDFTLTISSLQPEDFATYYCVHYAQFPYTFGQGTKVEIK
## Result 0.00309

## Task Sample 3C8.gr.1 (antibody, V domains shown, human Fc) VH: EVQLVQSGAEVKKPGASVKVSCKASGYAFTNYLIEWVRQAPGQGLEWIGVINPGSGDTYYSEKFKGRVTITRDTSTSTAYLELSSLRSEDTAVYYCARDRLDYWGQGTLVTVSS VL: DIQMTQSPSSLSASVGDRVTITCHASQDISSYIVWYQQKPGKAPKLLIYHGTNLEDGVPSRFSGSGSGTDFTLTISSLQPEDFATYYCVHYAQFPYTFGQGTKVEIK — what was its koff?
## Result 0.00267

## Task What does the record list as koff for 3C8.gr.2 (antibody, V domains shown, human Fc) VH: EVQLVQSGAEVKKPGASVKVSCKASGYAFTNYLIEWVRQAPGQGLEWIGVINPGSGDTYYSEKFKGRVTITADTSTSTAYLELSSLRSEDTAVYYCARDRLDYWGQGTLVTVSS VL: DIQMTQSPSSLSASVGDRVTITCHASQDISSYIVWYQQKPGKAPKLLIYHGTNLEDGVPSRFSGSGSGTDFTLTISSLQPEDFATYYCVHYAQFPYTFGQGTKVEIK ?
## Result 0.00255

## Task Could you tell me which koff is on file for 3C8.gr.6 (antibody, V domains shown, human Fc) VH: EVQLVQSGAEVKKPGASVKVSCKASGYAFTNYLIEWVRQAPGQGLEWIGVINPGSGDTYYSEKFKGRVTITADTSTSTAYLELSSLRSEDTAVYYCARDRLDYWGQGTLVTVSS VL: DIQMTQSPSSLSASVGDRVTITCHASQDISSYIVWYQQKPGKSFKGLIYHGTNLEDGVPSRFSGSGSGADYTLTISSLQPEDFATYYCVHYAQFPYTFGQGTKVEIK ?
## Result 0.00122

## Task Give its koff value. Item: 3C8.gr.11 (antibody, V domains shown, human Fc) VH: EVQLVQSGAEVKKPGASVKVSCKASGYAFTNYLIEWVRQAPGQGLEWIGVINPGSGDTYYSEKFKGRVTLTRDTSTSTAYLELSSLRSEDTAVYYCARDRLDYWGQGTLVTVSS VL: DIQMTQSPSSLSASVGDRVTITCHASQDISSYIVWYQQKPGKAPKGLIYHGTNLEDGVPSRFSGSGSGTDFTLTISSLQPEDFATYYCVHYAQFPYTFGQGTKVEIK
## Result 0.000917

## Task Could you share which koff value was measured for 3C8.gr.4 (antibody, V domains shown, human Fc) VH: EVQLVQSGAEVKKPGASVKVSCKASGYAFTNYLIEWVRQAPGQGLEWIGVINPGSGDTYYSEKFKGRVTITADTSTSTAYLELSSLRSEDTAVYYCARDRLDYWGQGTLVTVSS VL: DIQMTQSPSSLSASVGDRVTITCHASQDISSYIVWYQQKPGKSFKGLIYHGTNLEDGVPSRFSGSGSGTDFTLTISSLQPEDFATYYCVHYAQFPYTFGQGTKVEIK ?
## Result 0.000923

## Task Suppose we examine the binder 1A7.gr.2 (antibody, V domains shown, human Fc (captured by anti-human Fc)) VH: EVQLVQSGAEVKKPGASVKVSCKASGYTFTDSYMSWVRQAPGQGLEWIGDMYPDNGDSSYNQKFRERVTITVDTSTSTAYLELSSLRSEDTAVYYCVLAPRWYFSVWGQGTLVTVSS VL: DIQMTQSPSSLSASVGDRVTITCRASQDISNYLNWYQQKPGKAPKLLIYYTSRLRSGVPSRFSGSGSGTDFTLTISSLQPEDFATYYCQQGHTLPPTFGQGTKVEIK ; what koff value has been reported?
## Result 0.000233
